This section presents compounds with their documented pIC50 values.
target: Avi-KRAS G12D (1-169) GppNHp/RAF1 RBD-3xFLAG (52-151) (Homo sapiens, UniProt P01116, G12D); construct: 100 nM Avi-KRAS G12D (1-169) GppNHp; experiment: RAS-effector PPI HTRF disruption assay, Raf1-GppNHp-KRAS G12D
Sequence (P01116 1-169 isoform P01116-2 G12D): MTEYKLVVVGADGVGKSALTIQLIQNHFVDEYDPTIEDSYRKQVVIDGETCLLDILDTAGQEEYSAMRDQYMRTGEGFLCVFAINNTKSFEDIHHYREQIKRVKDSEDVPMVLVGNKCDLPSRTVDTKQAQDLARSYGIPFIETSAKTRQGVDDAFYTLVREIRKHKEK
pIC50: −log10 of the molar value.

# Compound, pIC50
rows = [
    ("Nc1nc2c(-c3c(C(F)(F)F)cc4c(O[C@H]5CNC[C@@H]5F)nc(OC[C@@]56CCCN5C[C@H](F)C6)nc4c3F)ccc(F)c2s1 (atropisomer, axis not shown) [Compound 18]", "< 5.00"),
    ("C[C@H]1NCC[C@H]1Oc1nc(OC[C@@]23CCCN2C[C@H](F)C3)nc2c(F)c(-c3ccc(F)c4sc(N)c(C#N)c34)c(C(F)(F)F)cc12 (single isomer, unassigned) [Compound 73]", "≥ 7.00"),
    ("N#Cc1c(N)sc2c(F)ccc(-c3ccc4c(O[C@H]5CNC[C@@H]5F)nc(OC[C@@]56CCCN5C[C@H](F)C6)nc4c3F)c12 [Compound 71]", "5.00 to 6.00"),
    ("Nc1nc2c(-c3c(C(F)(F)F)cc4c(O[C@@H]5CCNC5)nc(OC[C@@]56CCCN5C[C@H](F)C6)nc4c3Cl)ccc(F)c2s1 (atropisomer, axis not shown) [Compound 11]", "< 5.00"),
    ("N#Cc1c(N)sc2c(F)ccc(-c3c(Cl)cc4c(O[C@@H]5CN[C@@H](CO)C5)nc(OC[C@@]56CCCN5C[C@H](F)C6)nc4c3F)c12 (atropisomer, axis not shown) [Compound 68]", "< 5.00"),
    ("C[C@H]1NCCC1Oc1nc(OC[C@@]23CCCN2C[C@H](F)C3)nc2c(F)c(-c3ccc(F)c4sc(N)nc34)c(C(F)(F)F)cc12 (some centres unmarked) [Compound 19]", "6.00 to 7.00"),
    ("C[C@H]1NCC[C@H]1Oc1nc(OC[C@@]23CCCN2C[C@H](F)C3)nc2c(F)c(-c3ccc(F)c4sc(N)c(C#N)c34)c(C(F)(F)F)cc12 (single isomer, unassigned) [Compound 74]", "< 5.00"),
    ("C[C@@H]1CNCC1Oc1nc(OC[C@@]23CCCN2C[C@H](F)C3)nc2c(F)c(-c3ccc(F)c4sc(N)nc34)c(C(F)(F)F)cc12 (some centres unmarked) [Compound 16]", "5.00 to 6.00"),
    ("Nc1nc2c(-c3c(C(F)(F)F)cc4c(O[C@H]5CNCC5(F)F)nc(OC[C@@]56CCCN5C[C@H](F)C6)nc4c3F)ccc(F)c2s1 [Compound 28]", "5.00 to 6.00"),
    ("Nc1nc2c(-c3c(C(F)(F)F)cc4c(O[C@H]5CNC[C@@H]5F)nc(OC[C@@]56CCCN5C[C@H](F)C6)nc4c3F)ccc(F)c2s1 (atropisomer, axis not shown) [Compound 17]", "6.00 to 7.00"),
    ("C[C@H]1CNCC1Oc1nc(OC[C@@]23CCCN2C[C@H](F)C3)nc2c(F)c(-c3ccc(F)c4sc(N)nc34)c(C(F)(F)F)cc12 (some centres unmarked) [Compound 1]", "5.00 to 6.00"),
]
